Rule: t for melting point not less than 200 °C, f for anything less.

A selection of reference data follows.
>>> qualitative_label("C[C@]1(O)CC[C@H](C(=O)N[C@H]2CC[C@H](CCN3CCN(c4nccc5c4CCO5)CC3)CC2)CC1 [Example 54]")
"f"
>>> qualitative_label("O=C(N[C@H]1CC[C@H](CCN2CCN(c3nccc4c3CCO4)CC2)CC1)c1ccc(-c2ccccc2)cc1 [Example 134]")
"t"
>>> qualitative_label("Cc1cnc(N2CCN(CC[C@H]3CC[C@H](NC(=O)C4CCOCC4)CC3)CC2)c2c1OCC2 [Example 109]")
"t"
>>> qualitative_label("CS(=O)(=O)CC(=O)N[C@H]1CC[C@H](CCN2CCN(c3nccc4c3CCO4)CC2)CC1 [Example 39]")
"t"
>>> qualitative_label("O=CN[C@H]1CC[C@H](CCN2CCN(c3nccc4c3CCO4)CC2)CC1 [Example 83]")
"f"
>>> qualitative_label("CC(C)CCC(=O)N[C@H]1CC[C@H](CCN2CCN(c3nccc4c3CCO4)CC2)CC1 [Example 93]")
"f"
>>> qualitative_label("Cc1cc2c(c(N3CCN(CC[C@H]4CC[C@H](NC(=O)CC5CCOCC5)CC4)CC3)n1)CCO2 [Example 102]")
"t"
>>> qualitative_label("CCCC(=O)N[C@H]1CC[C@H](CCN2CCN(c3nccc4c3CCO4)CC2)CC1 [Example 92]")
"f"
>>> qualitative_label("O=C(CC1(O)CCC1)N[C@H]1CC[C@H](CCN2CCN(c3nccc4c3CCO4)CC2)CC1 [Example 141]")
"f"
>>> qualitative_label("COCCC(=O)N[C@H]1CC[C@H](CCN2CCN(c3ncc(C)c4occc34)CC2)CC1 [Example 107]")
"f"

Read the next record carefully.
Query block: Hi, just wondering whether CC(=O)N[C@H]1CC[C@H](CCN2CCN(c3ncc(C)c4occc34)CC2)CC1 [Example 104] shows melting point of 200 °C or higher.
Result block: t

* * *

property.measured: melting point (°C)
Answers are plain numbers, in °C.

A selection of reference data follows.
>>> observed_measurement("CC(C)=CC(=O)N[C@H]1CC[C@H](CCN2CCN(c3nccc4c3CCO4)CC2)CC1 [Example 80]")
164.5
>>> observed_measurement("COCCC(=O)N[C@H]1CC[C@H](CCN2CCN(c3nc(C)cc4c3CCO4)CC2)CC1 [Example 103]")
178.5
>>> observed_measurement("CC(C)CC(=O)N[C@H]1CC[C@H](CCN2CCN(c3nccc4c3CCO4)CC2)CC1 [Example 71]")
202.5
>>> observed_measurement("O=C(CO)N[C@H]1CC[C@H](CCN2CCN(c3nccc4c3CCO4)CC2)CC1 [Example 40]")
237
>>> observed_measurement("O=C(N[C@H]1CC[C@H](CCN2CCN(c3nccc4c3CCO4)CC2)CC1)c1ccccc1 [Example 44]")
207.5
>>> observed_measurement("O=C(N[C@H]1CC[C@H](CCN2CCN(c3nccc4c3CCO4)CC2)CC1)c1ccnc2ccccc12 [Example 62]")
210

List the reported melting point of each molecule below.
1. O=C(C[C@@H]1COCCO1)N[C@H]1CC[C@H](CCN2CCN(c3nccc4c3CCO4)CC2)CC1 [Example 61]
2. Cc1cc2occc2c(N2CCN(CC[C@H]3CC[C@H](NC(=O)C4CCOCC4)CC3)CC2)n1 [Example 97]
3. Cc1cc(C(=O)N[C@H]2CC[C@H](CCN3CCN(c4nccc5c4CCO5)CC3)CC2)on1 [Example 85]

Result block:
1. 193.5
2. 219
3. 218

List the reported melting point of each molecule below.
1. CN1CCN(c2ccc(C(=O)N[C@H]3CC[C@H](CCN4CCN(c5nccc6c5CCO6)CC4)CC3)cc2)CC1 [Example 118]
2. CN(C)C(=O)N[C@H]1CC[C@H](CCN2CCN(c3nccc4c3CCO4)CC2)CC1 [Example 78]
3. COCCC(=O)N[C@H]1CC[C@H](CCN2CCN(c3ncc(C)c4c3CCO4)CC2)CC1 [Example 111]
4. O=C(CCC(F)(F)F)N[C@H]1CC[C@H](CCN2CCN(c3nccc4c3CCO4)CC2)CC1 [Example 95]
5. CO[C@H]1CC[C@H](CC(=O)N[C@H]2CC[C@H](CCN3CCN(c4nccc5c4CCO5)CC3)CC2)C1 [Example 90]
6. O=C(N[C@H]1CC[C@H](CCN2CCN(c3nccc4c3CCO4)CC2)CC1)c1ccc(-n2cccn2)cc1 [Example 126]
7. O=C(N[C@H]1CC[C@H](CCN2CCN(c3nccc4c3CCO4)CC2)CC1)C1(O)CC1 [Example 58]

Result block:
1. 236
2. 260
3. 163.5
4. 195.5
5. 241
6. 229
7. 174.5

* * *

These records show log10 Ki for UniProt P35462.
Sequence (P35462 whole entry): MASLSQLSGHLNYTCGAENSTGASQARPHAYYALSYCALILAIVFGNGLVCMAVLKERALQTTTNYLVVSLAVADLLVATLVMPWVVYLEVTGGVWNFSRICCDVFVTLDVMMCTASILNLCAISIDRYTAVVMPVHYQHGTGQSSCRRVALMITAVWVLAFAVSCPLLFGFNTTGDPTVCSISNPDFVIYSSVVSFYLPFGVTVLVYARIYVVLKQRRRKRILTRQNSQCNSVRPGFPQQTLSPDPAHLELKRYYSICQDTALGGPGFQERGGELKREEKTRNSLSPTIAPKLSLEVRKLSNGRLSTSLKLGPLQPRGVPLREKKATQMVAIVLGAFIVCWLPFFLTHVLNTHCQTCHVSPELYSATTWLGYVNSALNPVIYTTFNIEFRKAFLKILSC
Plainly stated, the numbers are log10 of Ki given in nM.

A selection of reference data follows.
>>> observed_measurement("Cc1nc(-c2cccc(C(=O)N[C@H]3CC[C@H](CCN4CCN(c5nccc6c5CCO6)CC4)CC3)c2)no1")
1.29
>>> observed_measurement("O=C(N[C@H]1CC[C@H](CCN2CCN(c3nccc4c3CCO4)CC2)CC1)c1ccc(-c2ccccc2)cc1")
1.27
>>> observed_measurement("COCC(=O)N[C@H]1CC[C@H](CCN2CCN(c3nccc4sccc34)CC2)CC1")
0.51
>>> observed_measurement("N#CCC(=O)N[C@H]1CC[C@H](CCN2CCN(c3nccc4c3CCO4)CC2)CC1")
0.89

List the reported log10 Ki of each compound below.
1. O=C(N[C@H]1CC[C@H](CCN2CCN(c3nccc4c3CCO4)CC2)CC1)C1CCC1
2. Cc1cnc(N2CCN(CC[C@H]3CC[C@H](NC(=O)C4CCOCC4)CC3)CC2)c2ccoc12

Result block:
1. 1.20
2. 1.86

List the reported log10 Ki of each compound below.
1. O=C(CCC(F)(F)F)N[C@H]1CC[C@H](CCN2CCN(c3nccc4c3CCO4)CC2)CC1
2. COC(CCC(=O)N[C@H]1CC[C@H](CCN2CCN(c3nccc4c3CCO4)CC2)CC1)OC

Result block:
1. 1.30
2. 1.83

* * *

- tgt: human 5-HT2A receptor (Homo sapiens (Human), UniProt P28223)
- Sequence (P28223 whole entry): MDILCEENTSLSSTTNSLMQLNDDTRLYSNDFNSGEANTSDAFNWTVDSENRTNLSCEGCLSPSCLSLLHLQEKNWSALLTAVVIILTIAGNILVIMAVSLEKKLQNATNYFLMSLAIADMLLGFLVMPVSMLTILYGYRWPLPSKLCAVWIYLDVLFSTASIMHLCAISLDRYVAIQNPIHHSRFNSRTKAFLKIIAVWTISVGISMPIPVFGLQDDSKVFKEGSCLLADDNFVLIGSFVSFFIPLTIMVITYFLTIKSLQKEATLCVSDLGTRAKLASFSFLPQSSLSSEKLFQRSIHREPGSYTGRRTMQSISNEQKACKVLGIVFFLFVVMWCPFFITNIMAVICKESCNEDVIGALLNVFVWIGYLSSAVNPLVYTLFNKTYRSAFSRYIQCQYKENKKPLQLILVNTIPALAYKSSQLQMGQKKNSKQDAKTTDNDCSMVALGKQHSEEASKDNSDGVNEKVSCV
- test.details: Radioligand binding assay, [3H]-ketanserin, human 5-HT2A receptor
- measurement.parameters: membranes of HEK293 EBNA cells expressing human 5-HT2A; 1.1 nM [3H]-ketanserin
property.measured: pKi
Answers are plain numbers, as −log10 of the molar value.

>>> observed_measurement("O=S(=O)(N[C@H]1CC[C@H](CCN2CCN(c3nccc4c3CCO4)CC2)CC1)c1ccc(F)cc1 [Example 50]")
7.40
>>> observed_measurement("COCCC(=O)N[C@H]1CC[C@H](CCN2CCN(c3ncc(C)c4occc34)CC2)CC1 [Example 107]")
7.92
>>> observed_measurement("O=C(N[C@H]1CC[C@H](CCN2CCN(c3nccc4c3CCO4)CC2)CC1)c1cnc(N2CCOCC2)cn1 [Example 130]")
7.74
>>> observed_measurement("O=CN[C@H]1CC[C@H](CCN2CCN(c3nccc4c3CCO4)CC2)CC1 [Example 83]")
7.63

List the reported pKi of each molecule below.
1. O=C(CCO)N[C@H]1CC[C@H](CCN2CCN(c3nccc4occc34)CC2)CC1 [Example 6]
2. CC(C)(C)CC(=O)N[C@H]1CC[C@H](CCN2CCN(c3nccc4c3CCO4)CC2)CC1 [Example 72]
3. Cc1cc2occc2c(N2CCN(CC[C@H]3CC[C@H](NC(=O)CC4CCOCC4)CC3)CC2)n1 [Example 98]
4. O=C(N[C@H]1CC[C@H](CCN2CCN(c3nccc4c3CCO4)CC2)CC1)C1(O)CCC1 [Example 123]

Result block:
7.99
7.79
7.12
8.01

* * *

- tgt: human 5-HT2A receptor (Homo sapiens (Human))
- test.details: Radioligand binding assay, [3H]-ketanserin, human 5-HT2A receptor
- measurement.parameters: membranes of HEK293 EBNA cells expressing human 5-HT2A; 1.1 nM [3H]-ketanserin
- Description: HEK293 EBNA cells were transiently transfected with expression plasmids encoding for the human D2 or D3 or for the human 5-HT2A receptor, respectively. […] The protein content of this homogenate was determined with the Bio-Rad (Bradford) Protein Assay (Biorad Laboratories GmbH, München, Germany) according to the instructions of the manufacturer using gamma globulin as the standard. […] The binding affinity (Ki) of the compounds was determined using radioligand binding. […]
property.measured: pKi
One number for each entry, as −log10 of the molar value.

>>> observed_measurement("O=C(N[C@H]1CC[C@H](CCN2CCN(c3nccc4c3CCO4)CC2)CC1)C(F)(F)F")
7.72
>>> observed_measurement("COCC(=O)N[C@H]1CC[C@H](CCN2CCN(c3nccc4occc34)CC2)CC1")
8.36
>>> observed_measurement("CN(C)S(=O)(=O)N[C@H]1CC[C@H](CCN2CCN(c3nccc4occc34)CC2)CC1")
8.28
>>> observed_measurement("CCCCC(=O)N[C@H]1CC[C@H](CCN2CCN(c3nccc4c3CCO4)CC2)CC1")
7.61
>>> observed_measurement("CC(C)(C)Oc1ccc(C(=O)N[C@H]2CC[C@H](CCN3CCN(c4nccc5c4CCO5)CC3)CC2)cc1")
7.38
>>> observed_measurement("CCC(C)C(=O)N[C@H]1CC[C@H](CCN2CCN(c3nccc4c3CCO4)CC2)CC1 (mixture of isomers)")
7.88

List the reported pKi of each compound below.
1. COCCC(=O)N[C@H]1CC[C@H](CCN2CCN(c3ncc(C)c4c3CCO4)CC2)CC1
2. O=C(N[C@H]1CC[C@H](CCN2CCN(c3nccc4c3CCO4)CC2)CC1)c1ccc(-n2cccc2)cc1

Result block:
7.43
7.62

The measurements presented in this section are drawn from patent US8586579B2.
